meta.source: patent US20240034737A1

# measured.on: mP2X7 (Mus musculus (Mouse), UniProt Q9Z1M0)
# Sequence (Q9Z1M0 whole entry): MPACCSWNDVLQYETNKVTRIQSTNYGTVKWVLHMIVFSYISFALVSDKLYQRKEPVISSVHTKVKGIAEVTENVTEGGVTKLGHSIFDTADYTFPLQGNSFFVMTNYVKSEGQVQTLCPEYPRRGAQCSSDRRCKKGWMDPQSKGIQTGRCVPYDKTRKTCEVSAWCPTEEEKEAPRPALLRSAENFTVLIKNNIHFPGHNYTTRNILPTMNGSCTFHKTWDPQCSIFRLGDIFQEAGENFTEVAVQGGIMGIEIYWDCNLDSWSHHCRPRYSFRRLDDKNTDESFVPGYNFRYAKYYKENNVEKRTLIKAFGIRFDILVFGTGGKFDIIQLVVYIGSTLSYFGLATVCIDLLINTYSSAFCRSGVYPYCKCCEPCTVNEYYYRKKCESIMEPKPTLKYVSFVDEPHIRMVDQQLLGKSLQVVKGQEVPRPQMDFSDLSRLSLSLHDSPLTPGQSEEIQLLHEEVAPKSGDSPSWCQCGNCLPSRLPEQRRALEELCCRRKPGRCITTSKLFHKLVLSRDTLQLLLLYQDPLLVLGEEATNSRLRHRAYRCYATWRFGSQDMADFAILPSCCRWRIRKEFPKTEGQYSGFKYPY
# assay.text: mP2X7 channel calcium-influx assay (Fluo-8 NW, FLIPR TETRA, Bz-ATP stimulation)
pIC50: −log10 of the molar value.
quantity.name: pIC50

compound	quantitative.result
O=C(NCC(c1scnc1C(F)F)N1CCC(COc2ncccc2Cl)CC1)c1c(F)cccc1Cl (centres unmarked)	7.79
O=C(NCC(c1scnc1C(F)F)N1CCC(Oc2ncccc2F)CC1)c1c(F)cccc1Cl (centres unmarked)	7.54
N#Cc1ncccc1OCC1CCN(C(CNC(=O)c2c(F)cccc2Cl)c2scnc2C(F)F)CC1 (centres unmarked)	7.59
O=C(NCC(c1scnc1C(F)F)N1CCC(Oc2nccn3cnnc23)CC1)c1c(F)cccc1Cl (centres unmarked)	6.18
O=C(NCC(c1scnc1C(F)F)N1CCC(Oc2nc(C3CC3)ns2)CC1)c1c(F)cccc1Cl (centres unmarked)	7.48
O=C(NCC(c1scnc1C(F)F)N1CCC(COc2ccnc(F)c2)CC1)c1c(F)cccc1Cl (centres unmarked)	7.64
O=C(NCC(c1scnc1C(F)F)N1CCC(Oc2nc(-c3ccccc3)no2)CC1)c1c(F)cccc1Cl (centres unmarked)	7.49
Cc1cc(OC2CCN(C(CNC(=O)c3c(F)cccc3Cl)c3scnc3C(F)F)CC2)nc(F)n1 (centres unmarked)	7.28

###

# measured.on: mP2X7 (Mus musculus (Mouse))
# assay.text: mP2X7 channel calcium-influx assay (Fluo-8 NW, FLIPR TETRA, Bz-ATP stimulation)
# Experimental: Extracellular binding of Bz-ATP to P2X7 receptor opens the channel and allows Ca^2+ influx into the cells. This Ca^2+ entry was measured in HEK-293 cells stably transfected with P2X7 receptor using Screen Quest™ Fluo-8 No Wash Calcium Assay Kit (AAt Bioquest®, cat. 36316). […] Its fluorescence increases upon binding to calcium. When HEK-293/P2X7 cells are stimulated with Bz-ATP, Ca^2+ enters the cells and the fluorescence of Fluo-8 NW increases. […]
pIC50: −log10 of the molar value.
Decision: pIC50 >= 7 yields Satisfied, all other cases yield Not satisfied.

compound	class.assignment
O=C(NCC(c1scnc1C(F)F)N1CCC(COc2ccc(F)cn2)CC1)c1c(F)cccc1Cl (centres unmarked)	Satisfied
N#Cc1cccnc1OCC1CCN(C(CNC(=O)c2c(F)cccc2Cl)c2scnc2C(F)F)CC1 (centres unmarked)	Satisfied
Cc1ccnc(OCC2CCN(C(CNC(=O)c3c(F)cccc3Cl)c3scnc3C(F)F)CC2)c1 (centres unmarked)	Satisfied
O=C(NCC(c1scnc1C(F)F)N1CCC(COc2cc(F)ncn2)CC1)c1c(F)cccc1Cl (centres unmarked)	Satisfied
O=C(NCC(c1scnc1C(F)F)N1CCC(Oc2nc3ccccc3o2)CC1)c1c(F)cccc1Cl (centres unmarked)	Satisfied
COc1ccnc(OC2CCN(C(CNC(=O)c3c(F)cccc3Cl)c3scnc3C(F)F)CC2)n1 (centres unmarked)	Not satisfied

###

# Tested on: CYP4503A4
# assay.text: CYP4503A4 metabolic induction (mRNA expression) in human cryopreserved platable hepatocytes
# Assay type: in vitro ADME
# details: 10 μM test compound, two days treatment, mRNA by QuantiGene Plex 2.0
Entries whose CYP4503A4 mRNA fold increase at 10 μM is below 5 fold take condition met; entries at or above 5 fold take condition not met.

molecule	measured.on	class.assignment
O=C(NCC(c1scnc1C(F)F)N1CCC(COc2nc3ccccc3s2)CC1)c1c(F)cccc1Cl (centres unmarked)	CYP4503A4	condition not met
Cc1cc(COC2CCN(C(CNC(=O)c3c(F)cccc3Cl)c3scnc3C(F)F)CC2)no1 (centres unmarked)	CYP4503A4	condition met
O=C(NCC(c1scnc1C(F)F)N1CCC(Oc2cccnc2)CC1)c1c(F)cccc1Cl (centres unmarked)	CYP4503A4	condition met
O=C(NCC(c1scnc1C(F)F)N1CCC(Oc2ccc(F)nn2)CC1)c1c(F)cccc1Cl (centres unmarked)	CYP4503A4	condition not met
O=C(NCC(c1scnc1C(F)F)N1CCC(Oc2ncccc2F)CC1)c1c(F)cccc1Cl (centres unmarked)	CYP4503A4	condition not met
O=C(NCC(c1scnc1C(F)F)N1CCC(Oc2ccnc(F)c2)CC1)c1c(F)cccc1Cl (centres unmarked)	CYP4503A4	condition not met
O=C(NCC(c1scnc1C(F)F)N1CCC(COc2nccn3nccc23)CC1)c1c(F)cccc1Cl (centres unmarked)	CYP4503A4	condition not met
